Data credit: patent US9714260B2

- experimental protocol: Optical characteristics of dyes in phosphate buffered saline of pH 7.4
- Assay type: physicochemical
Recorded λabs. max for the following compounds
quantity name: λabs. max (nm)

>>> print(df.to_string())
                                   compound  quantity_name  meas_value
0  Cc1cccc(C)c1C1=c2cc3c(cc2[Si](C)(C)c2cc(N)ccc21)=[N+](C)CC3 [Compound 13, diMeSiR650]      λabs. max         637
1  Cc1ccccc1C1=c2cc3c(cc2[Si](C)(C)c2cc(/N=N/c4ccc(N(C)C)cc4)ccc21)=[N+](C)CC3 [Compound 11, 2MeazoSiR650]      λabs. max         590
2  Cc1ccccc1C1=c2cc3c(cc2[Si](C)(C)c2cc(N)ccc21)=[N+](C)CC3 [Compound 5, 2MeIndoSiR]      λabs. max         637
3  Cc1cccc(C)c1C1=c2cc3c(cc2[Si](C)(C)c2cc(/N=N/c4ccc(N(C)C)cc4)ccc21)=[N+](C)CC3 [Compound 14, diMeazoSiR650]      λabs. max         587
